FYI, the data here is from ChEMBL document CHEMBL1144318.

Listing of entries alongside the reported pEC50.
subject_of_test: Beta-2 adrenergic receptor (Homo sapiens)
procedure_details: Agonistic activity was assessed by measuring cAMP accumulation in CHO cells expressing human beta-2 adrenergic receptor
Assay type: functional, cell-based
Keep in mind that pEC50 stands for -log10 of concentration in molar terms.

Examples with their reported pEC50 follow.
cpd_smiles | pEC50
CC#CCNc1cccc([C@@H](O)CN[C@H](C)Cc2c[nH]c3c(OS(C)(=O)=O)cccc23)c1 | 7.74
C[C@H](Cc1c[nH]c2c(OS(C)(=O)=O)cccc12)NC[C@H](O)c1cccc(OCc2ccccc2)c1 | 7.34
C[C@H](Cc1c[nH]c2c(OS(C)(=O)=O)cccc12)NC[C@H](O)c1cccc(NC(=O)c2ccccc2)c1 | 7.16
CC/C=C/CNc1cccc([C@@H](O)CN[C@H](C)Cc2c[nH]c3c(OS(C)(=O)=O)cccc23)c1 | 7.96
CC(C)=CCNc1cccc([C@@H](O)CN[C@H](C)Cc2c[nH]c3c(OS(C)(=O)=O)cccc23)c1 | 7.44

The molecule listed as C#CCNc1cccc([C@@H](O)CN[C@H](C)Cc2c[nH]c3c(OS(C)(=O)=O)cccc23)c1 shows pEC50 equal to 8.02

The molecule listed as C[C@H](Cc1c[nH]c2c(OS(C)(=O)=O)cccc12)NC[C@H](O)c1cccc(NCc2ccccc2)c1 shows pEC50 equal to 7.80

The molecule listed as C=CCNc1cccc([C@@H](O)CN[C@H](C)Cc2c[nH]c3c(OS(C)(=O)=O)cccc23)c1 shows pEC50 equal to 8.66

* * *

subject_of_test: UniProtKB P07550
procedure_details: Agonistic activity was assessed by measuring cAMP accumulation in CHO cells expressing human beta-2 adrenergic receptor
Format: functional, cell-based
value_type: EC50 (nM)
Numbers only; they are read as nM.

Examples with their reported EC50 follow.
cpd_smiles | uom | EC50
C/C=C/CNc1cccc([C@@H](O)CN[C@H](C)Cc2c[nH]c3c(OS(C)(=O)=O)cccc23)c1 | nM | 10
C=C(C)CNc1cccc([C@@H](O)CN[C@H](C)Cc2c[nH]c3c(OS(C)(=O)=O)cccc23)c1 | nM | 1.5

The compound listed as C[C@H](Cc1c[nH]c2c(OS(C)(=O)=O)cccc12)NC[C@H](O)c1cccc(NC/C=C/c2ccccc2)c1 shows EC50 equal to 13

* * *

subject_of_test: Beta-2 adrenergic receptor (Homo sapiens, UniProt P07550)
Sequence (P07550 whole entry): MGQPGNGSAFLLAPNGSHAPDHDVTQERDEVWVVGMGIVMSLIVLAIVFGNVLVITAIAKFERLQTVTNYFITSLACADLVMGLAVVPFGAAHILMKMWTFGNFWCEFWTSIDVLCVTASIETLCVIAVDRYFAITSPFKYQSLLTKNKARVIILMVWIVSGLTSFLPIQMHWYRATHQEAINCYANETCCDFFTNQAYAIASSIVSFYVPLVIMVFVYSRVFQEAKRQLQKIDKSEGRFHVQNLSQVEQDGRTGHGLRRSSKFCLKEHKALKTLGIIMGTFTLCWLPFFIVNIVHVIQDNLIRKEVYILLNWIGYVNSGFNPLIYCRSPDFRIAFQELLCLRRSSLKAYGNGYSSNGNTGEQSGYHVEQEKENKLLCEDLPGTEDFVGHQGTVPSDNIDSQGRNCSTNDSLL
procedure_details: Effective concentration against human beta-2 adrenergic receptor
Type: functional
value_type: EC50
Your reply should be a number followed by the unit it is expressed in.

The molecule listed as C[C@H](Cc1c[nH]c2c(OS(C)(=O)=O)cccc12)NC[C@H](O)c1cccc(NS(=O)(=O)c2ccccc2)c1 shows EC50 equal to 19 nM

* * *

Listing of entries alongside the reported IA50.
subject_of_test: Beta-3 adrenergic receptor (Homo sapiens)
procedure_details: Intrinsic activity against human beta-3 adrenergic receptor IA) as a percentage of maximal stimulation with isoproterenol
Assay type: functional
Sequence (P13945 whole entry, looked up): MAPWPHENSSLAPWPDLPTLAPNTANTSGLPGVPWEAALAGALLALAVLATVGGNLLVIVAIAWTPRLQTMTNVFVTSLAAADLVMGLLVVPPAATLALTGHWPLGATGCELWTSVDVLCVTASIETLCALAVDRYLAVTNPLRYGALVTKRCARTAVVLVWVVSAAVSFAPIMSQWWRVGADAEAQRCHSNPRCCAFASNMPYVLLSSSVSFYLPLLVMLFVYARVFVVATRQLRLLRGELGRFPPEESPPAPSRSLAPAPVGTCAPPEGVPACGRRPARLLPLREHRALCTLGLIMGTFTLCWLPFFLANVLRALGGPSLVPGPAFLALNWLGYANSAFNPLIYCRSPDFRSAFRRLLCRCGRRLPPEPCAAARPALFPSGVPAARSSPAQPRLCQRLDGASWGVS
Numbers only; they are read as %.

cpd_smiles | subject_of_test | IA50 [%]
CC/C=C/CNc1cccc([C@@H](O)CN[C@H](C)Cc2c[nH]c3c(OS(C)(=O)=O)cccc23)c1 | Beta-3 adrenergic receptor (Homo sapiens) | 101
C[C@H](Cc1c[nH]c2c(OS(C)(=O)=O)cccc12)NC[C@H](O)c1cccc(NCc2ccccc2)c1 | Beta-3 adrenergic receptor (Homo sapiens) | 87
C[C@H](Cc1c[nH]c2c(OS(C)(=O)=O)cccc12)NC[C@H](O)c1cccc(NCc2ccc3ccccc3c2)c1 | Beta-3 adrenergic receptor (Homo sapiens) | 107

The molecule listed as C/C=C/CNc1cccc([C@@H](O)CN[C@H](C)Cc2c[nH]c3c(OS(C)(=O)=O)cccc23)c1 shows IA50 equal to 102

The molecule listed as C#CCNc1cccc([C@@H](O)CN[C@H](C)Cc2c[nH]c3c(OS(C)(=O)=O)cccc23)c1 shows IA50 equal to 102

The molecule listed as C[C@H](Cc1c[nH]c2c(OS(C)(=O)=O)cccc12)NC[C@H](O)c1cccc(NC/C=C/c2ccccc2)c1 shows IA50 equal to 97

* * *

subject_of_test: Beta-1 adrenergic receptor (Homo sapiens, UniProt P08588)
Sequence (P08588 whole entry): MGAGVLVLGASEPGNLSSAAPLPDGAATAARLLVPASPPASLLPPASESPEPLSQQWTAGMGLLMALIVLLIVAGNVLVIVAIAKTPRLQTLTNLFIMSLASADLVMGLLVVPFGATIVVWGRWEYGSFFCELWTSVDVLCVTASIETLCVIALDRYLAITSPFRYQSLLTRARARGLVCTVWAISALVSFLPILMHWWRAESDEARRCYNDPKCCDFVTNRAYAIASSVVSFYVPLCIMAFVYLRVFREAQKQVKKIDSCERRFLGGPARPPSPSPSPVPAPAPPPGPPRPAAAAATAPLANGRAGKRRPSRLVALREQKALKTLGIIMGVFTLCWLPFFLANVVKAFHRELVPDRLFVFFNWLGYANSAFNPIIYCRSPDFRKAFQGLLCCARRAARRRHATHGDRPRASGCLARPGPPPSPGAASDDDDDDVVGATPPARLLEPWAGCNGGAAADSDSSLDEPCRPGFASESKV
procedure_details: Agonistic activity was assessed by measuring cAMP accumulation in CHO cells expressing human beta-1 adrenergic receptor
value_type: EC50 (nM)
Numbers only; they are read as nM.

GET /values?item= C#CCNc1cccc([C@@H](O)CN[C@H](C)Cc2c[nH]c3c(OS(C)(=O)=O)cccc23)c1 &system= Beta-1 adrenergic receptor (Homo sapiens, UniProt P08588) returns EC50: 45

GET /values?item= C/C=C/CNc1cccc([C@@H](O)CN[C@H](C)Cc2c[nH]c3c(OS(C)(=O)=O)cccc23)c1 &system= Beta-1 adrenergic receptor (Homo sapiens, UniProt P08588) returns EC50: 170

GET /values?item= C[C@H](Cc1c[nH]c2c(OS(C)(=O)=O)cccc12)NC[C@H](O)c1cccc(NC(=O)c2ccccc2)c1 &system= Beta-1 adrenergic receptor (Homo sapiens, UniProt P08588) returns EC50: 120

GET /values?item= C[C@H](Cc1c[nH]c2c(OS(C)(=O)=O)cccc12)NC[C@H](O)c1cccc(NS(=O)(=O)c2ccccc2)c1 &system= Beta-1 adrenergic receptor (Homo sapiens, UniProt P08588) returns EC50: 13

GET /values?item= CC(C)=CCNc1cccc([C@@H](O)CN[C@H](C)Cc2c[nH]c3c(OS(C)(=O)=O)cccc23)c1 &system= Beta-1 adrenergic receptor (Homo sapiens, UniProt P08588) returns EC50: 160

* * *

subject_of_test: Beta-3 adrenergic receptor (Homo sapiens)
procedure_details: Agonistic activity was assessed by measuring cAMP accumulation in CHO cells expressing human beta-3 adrenergic receptor
Sequence (P13945 whole entry): as the sequence (P13945 whole entry, looked up) above
Decide using EC50 alone. Strictly below 20 nM: 1 (yes). Equal to or above 20 nM: 0 (no).

Look over these answered cases.
cpd_smiles | subject_of_test | answer_label
C[C@H](Cc1c[nH]c2c(OS(C)(=O)=O)cccc12)NC[C@H](O)c1cccc(NC(=O)c2ccccc2)c1 | Beta-3 adrenergic receptor (Homo sapiens) | 0 (no)
C[C@H](Cc1c[nH]c2c(OS(C)(=O)=O)cccc12)NC[C@H](O)c1cccc(N(C)S(=O)(=O)c2ccccc2)c1 | Beta-3 adrenergic receptor (Homo sapiens) | 0 (no)

Now let's try a different one.
Strictly below 20 nM: is that where EC50 of C[C@H](Cc1c[nH]c2c(OS(C)(=O)=O)cccc12)NC[C@H](O)c1cccc(NC/C=C/c2ccccc2)c1 sits?
1 (yes)

* * *

Listing of entries alongside the reported IA50.
subject_of_test: Beta-3 adrenergic receptor (Homo sapiens, UniProt P13945)
procedure_details: Intrinsic activity against human beta-3 adrenergic receptor IA) as a percentage of maximal stimulation with isoproterenol
Format: functional
Numbers only; they are read as %.

cpd_smiles | uom | IA50
C[C@H](Cc1c[nH]c2c(OS(C)(=O)=O)cccc12)NC[C@H](O)c1cccc(CS(=O)(=O)c2ccccc2)c1 | % | 54
C[C@H](Cc1c[nH]c2c(OS(C)(=O)=O)cccc12)NC[C@H](O)c1cccc(OCc2ccccc2)c1 | % | 90
C=C(C)CNc1cccc([C@@H](O)CN[C@H](C)Cc2c[nH]c3c(OS(C)(=O)=O)cccc23)c1 | % | 114
C[C@H](Cc1c[nH]c2c(OS(C)(=O)=O)cccc12)NC[C@H](O)c1cccc(NC(=O)c2ccccc2)c1 | % | 96
CC(C)=CCNc1cccc([C@@H](O)CN[C@H](C)Cc2c[nH]c3c(OS(C)(=O)=O)cccc23)c1 | % | 79
C[C@H](Cc1c[nH]c2c(OS(C)(=O)=O)cccc12)NC[C@H](O)c1cccc(OS(=O)(=O)c2ccccc2)c1 | % | 60
C=CCNc1cccc([C@@H](O)CN[C@H](C)Cc2c[nH]c3c(OS(C)(=O)=O)cccc23)c1 | % | 110
CC#CCNc1cccc([C@@H](O)CN[C@H](C)Cc2c[nH]c3c(OS(C)(=O)=O)cccc23)c1 | % | 90
C[C@H](Cc1c[nH]c2c(OS(C)(=O)=O)cccc12)NC[C@H](O)c1cccc(N(C)S(=O)(=O)c2ccccc2)c1 | % | 38

Next compound, please.
The compound listed as C[C@H](Cc1c[nH]c2c(OS(C)(=O)=O)cccc12)NC[C@H](O)c1cccc(NS(=O)(=O)c2ccccc2)c1 shows IA50 equal to 90

* * *

subject_of_test: Beta-3 adrenergic receptor (Homo sapiens, UniProt P13945)
procedure_details: Agonistic activity was assessed by measuring cAMP accumulation in CHO cells expressing human beta-3 adrenergic receptor
value_type: EC50
Your reply should be a number followed by the unit it is expressed in.

Examples with their reported EC50 follow.
cpd_smiles | subject_of_test | value_type | result
C[C@H](Cc1c[nH]c2c(OS(C)(=O)=O)cccc12)NC[C@H](O)c1cccc(OCc2ccccc2)c1 | Beta-3 adrenergic receptor (Homo sapiens, UniProt P13945) | EC50 | 0.015 µM
CC(C)=CCNc1cccc([C@@H](O)CN[C@H](C)Cc2c[nH]c3c(OS(C)(=O)=O)cccc23)c1 | Beta-3 adrenergic receptor (Homo sapiens, UniProt P13945) | EC50 | 0.036 µM
CC#CCNc1cccc([C@@H](O)CN[C@H](C)Cc2c[nH]c3c(OS(C)(=O)=O)cccc23)c1 | Beta-3 adrenergic receptor (Homo sapiens, UniProt P13945) | EC50 | 0.0065 µM
CC/C=C/CNc1cccc([C@@H](O)CN[C@H](C)Cc2c[nH]c3c(OS(C)(=O)=O)cccc23)c1 | Beta-3 adrenergic receptor (Homo sapiens, UniProt P13945) | EC50 | 0.009 µM
C[C@H](Cc1c[nH]c2c(OS(C)(=O)=O)cccc12)NC[C@H](O)c1cccc(CS(=O)(=O)c2ccccc2)c1 | Beta-3 adrenergic receptor (Homo sapiens, UniProt P13945) | EC50 | 0.1 µM
C=CCNc1cccc([C@@H](O)CN[C@H](C)Cc2c[nH]c3c(OS(C)(=O)=O)cccc23)c1 | Beta-3 adrenergic receptor (Homo sapiens, UniProt P13945) | EC50 | 0.0032 µM

The compound listed as C[C@H](Cc1c[nH]c2c(OS(C)(=O)=O)cccc12)NC[C@H](O)c1cccc(NCc2ccccc2)c1 shows EC50 equal to 0.011 µM

The compound listed as C=C(C)CNc1cccc([C@@H](O)CN[C@H](C)Cc2c[nH]c3c(OS(C)(=O)=O)cccc23)c1 shows EC50 equal to 0.017 µM

The compound listed as C[C@H](Cc1c[nH]c2c(OS(C)(=O)=O)cccc12)NC[C@H](O)c1cccc(OS(=O)(=O)c2ccccc2)c1 shows EC50 equal to 0.032 µM

The compound listed as C[C@H](Cc1c[nH]c2c(OS(C)(=O)=O)cccc12)NC[C@H](O)c1cccc(NCc2ccc3ccccc3c2)c1 shows EC50 equal to 0.0029 µM

The compound listed as C/C=C/CNc1cccc([C@@H](O)CN[C@H](C)Cc2c[nH]c3c(OS(C)(=O)=O)cccc23)c1 shows EC50 equal to 0.0012 µM

The compound listed as C[C@H](Cc1c[nH]c2c(OS(C)(=O)=O)cccc12)NC[C@H](O)c1cccc(NS(=O)(=O)c2ccccc2)c1 shows EC50 equal to 0.00054 µM

The compound listed as C#CCNc1cccc([C@@H](O)CN[C@H](C)Cc2c[nH]c3c(OS(C)(=O)=O)cccc23)c1 shows EC50 equal to 0.01 µM
